Each item that follows carries a reported glycan array binding signal (z-score).
Target: Neu5Ac(a2-3)Gal(b1-4)GlcNAc6S
Experiment: glycan array binding signal (z-score within array); higher = stronger binding
Conditions: glycan notation: IUPAC condensed, linker removed
About 410 targets per protein were measured; listed, in parts, are those with the strongest signals and a random draw of the rest.
Respond with the number and no other words.

{"binder": "DC-Sign-R (Homo sapiens), Q9H2X3 (protein) MSDSKEPRVQQLGLLEEDPTTSGIRLFPRDFQFQQIHGHKSSTGCLGHGALVLQLLSFMLLAGVLVAILVQVSKVPSSLSQEQSEQDAIYQNLTQLKAAVGELSEKSKLQEIYQELTQLKAAVGELPEKSKLQEIYQELTRLKAAVGELPEKSKLQEIYQELTRLKAAVGELPEKSKLQEIYQELTRLKAAVGELPEKSKLQEIYQELTELKAAVGELPEKSKLQEIYQELTQLKAAVGELPDQSKQQQIYQELTDLKTAFERLCRHCPKDWTFFQGNCYFMSNSQRNWHDSVTACQEVRAQLVVIKTAEEQNFLQLQTSRSNRFSWMGLSDLNQEGTWQWVDGSPLSPSFQRYWNSGEPNNSGNEDCAEFSGSGWNDNRCDVDNYWICKKPAACFRDE", "glycan array binding signal (z-score)": -0.795}

Query string: Fill in: glycan array binding signal (z-score) of MGL (Homo sapiens), Q8IUN9 (protein) MTRTYENFQYLENKVKVQGFKNGPLPLQSLLQRLCSGPCHLLLSLGLGLLLLVIICVVGFQNSKFQRDLVTLRTDFSNFTSNTVAEIQALTSQGSSLEETIASLKAEVEGFKQERQAGVSELQEHTTQKAHLGHCPHCPSVCVPVHSEMLLRVQQLVQDLKKLTCQVATLNNNASTEGTCCPVNWVEHQDSCYWFSHSGMSWAEAEKYCQLKNAHLVVINSREEQNFVQKYLGSAYTWMGLSDPEGAWKWVDGTDYATGFQNWKPGQPDDWQGHGLGGGEDCAHFHPDGRWNDDVCQRPYHWVCEAGLGQTSQESH is ___
Result string: -0.244
